Target: Short transient receptor potential channel 4 (Mus musculus, UniProt Q9QUQ5)
Sequence (Q9QUQ5 whole entry): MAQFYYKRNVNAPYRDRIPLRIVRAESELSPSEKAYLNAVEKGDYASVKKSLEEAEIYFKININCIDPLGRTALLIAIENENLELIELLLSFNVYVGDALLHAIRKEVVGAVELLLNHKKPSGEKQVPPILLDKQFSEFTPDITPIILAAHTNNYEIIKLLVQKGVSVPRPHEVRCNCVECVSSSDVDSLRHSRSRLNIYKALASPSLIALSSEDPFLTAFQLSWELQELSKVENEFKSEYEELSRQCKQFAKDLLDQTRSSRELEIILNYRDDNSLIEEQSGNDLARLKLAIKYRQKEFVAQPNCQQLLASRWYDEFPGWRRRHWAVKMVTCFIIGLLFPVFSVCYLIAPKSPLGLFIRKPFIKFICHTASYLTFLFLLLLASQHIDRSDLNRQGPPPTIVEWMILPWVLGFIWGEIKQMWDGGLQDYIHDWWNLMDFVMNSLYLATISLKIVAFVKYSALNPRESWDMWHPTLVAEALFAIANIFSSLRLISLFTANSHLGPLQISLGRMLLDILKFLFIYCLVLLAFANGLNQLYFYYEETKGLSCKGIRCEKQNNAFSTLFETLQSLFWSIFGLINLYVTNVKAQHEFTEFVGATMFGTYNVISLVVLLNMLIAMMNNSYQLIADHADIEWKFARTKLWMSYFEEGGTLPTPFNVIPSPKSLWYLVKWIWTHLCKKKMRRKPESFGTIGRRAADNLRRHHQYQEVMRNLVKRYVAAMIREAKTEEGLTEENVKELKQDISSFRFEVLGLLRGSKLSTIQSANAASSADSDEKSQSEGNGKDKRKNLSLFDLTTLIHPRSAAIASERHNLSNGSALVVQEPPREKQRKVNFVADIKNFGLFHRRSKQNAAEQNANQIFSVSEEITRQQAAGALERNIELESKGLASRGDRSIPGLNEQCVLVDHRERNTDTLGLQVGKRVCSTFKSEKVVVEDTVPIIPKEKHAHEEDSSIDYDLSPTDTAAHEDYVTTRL
Assay: mouse TRPC4 channel inhibitors, dose response, cell-based, HEK293 TRPC4/mu-opioid, Fluo-4 calcium (AID 434942);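 further: potency of inhibitors blocking the TRPC4 calcium response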
Format: functional
Active and inactive are the calls of the source.
observable: EC50

IN: Param item = c1ccc(Nc2[nH]nnc2-c2ccccc2)cc1 ; retrieve measured EC50.
OUT: 1.88 µM (active)

IN: Param item = CCC1=Nc2cc(C(=O)N3CCC4(CC3)OCCO4)ccc2Sc2ccc(C)cc21 ; retrieve measured EC50.
OUT: 7.5 µM (active)

IN: Param item = COc1ccc(Cl)cc1NC(=O)CNCC(c1ccccc1)N(C)C (configuration not stated) ; retrieve measured EC50.
OUT: 0.421 µM (active)

IN: Param item = Cc1cc(C)c2c(=O)n(CC(=O)NCCCN3CCN(c4ccccc4F)CC3)sc2n1 ; retrieve measured EC50.
OUT: 0.0013 µM (active)

IN: Param item = O=C(CCc1ccccc1)Nc1ccnn1C1CCN(C/C=C/c2ccccc2)CC1 ; retrieve measured EC50.
OUT: 1.5 µM (active)

IN: Param item = CN1CCN(c2ccc(NC(=O)c3ccc(Br)o3)cc2)CC1 ; retrieve measured EC50.
OUT: 0.841 µM (active)

IN: Param item = Cc1cc(OCC(=O)Nc2ccc(N3CCN(C)CC3)cc2)ccc1Cl ; retrieve measured EC50.
OUT: 2.66 µM (active)

----------
Exercise: state measured EC50 for each of the compounds provided.
Biological target: Luciferin 4-monooxygenase (Photinus pyralis, UniProt P08659)
Sequence (P08659 whole entry): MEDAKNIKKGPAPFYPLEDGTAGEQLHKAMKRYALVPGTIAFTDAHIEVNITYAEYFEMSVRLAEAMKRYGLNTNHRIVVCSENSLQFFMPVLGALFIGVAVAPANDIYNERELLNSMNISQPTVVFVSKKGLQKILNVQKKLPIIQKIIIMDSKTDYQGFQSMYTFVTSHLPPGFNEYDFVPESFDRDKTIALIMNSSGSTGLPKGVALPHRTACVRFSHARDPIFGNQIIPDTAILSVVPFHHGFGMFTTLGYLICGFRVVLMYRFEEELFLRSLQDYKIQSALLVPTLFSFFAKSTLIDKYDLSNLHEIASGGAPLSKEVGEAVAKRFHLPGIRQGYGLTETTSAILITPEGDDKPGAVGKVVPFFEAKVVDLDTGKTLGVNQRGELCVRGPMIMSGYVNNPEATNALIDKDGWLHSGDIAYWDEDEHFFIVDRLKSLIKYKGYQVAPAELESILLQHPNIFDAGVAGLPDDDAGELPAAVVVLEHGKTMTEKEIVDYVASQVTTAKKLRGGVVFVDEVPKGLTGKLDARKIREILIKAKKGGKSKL
Assay: firefly luciferase enzyme inhibitors, dose response, biochemical, luminescence (AID 1891)
Active and inactive are the calls of the source.

IN: GET /values?readout=EC50&system=Luciferin 4-monooxygenase (Photinus pyralis, UniProt P08659)&item= CN1C(=O)/C(=C/c2cn(CC(=O)N3CCCCC3)c3ccccc23)c2ccccc21
OUT: > 112 µM (not active)

IN: GET /values?readout=EC50&system=Luciferin 4-monooxygenase (Photinus pyralis, UniProt P08659)&item= COc1ccc(C(=O)/C=C/Nc2cccc(O)c2)cc1
OUT: 0.793 µM (active)

IN: GET /values?readout=EC50&system=Luciferin 4-monooxygenase (Photinus pyralis, UniProt P08659)&item= COc1cccc(CNC(=O)N[C@@H](CC(C)C)C(=O)O)c1
OUT: > 112 µM (not active)

IN: GET /values?readout=EC50&system=Luciferin 4-monooxygenase (Photinus pyralis, UniProt P08659)&item= COc1ccc(OC)c(CCNC(=O)CCc2nnc3ccc(N4CCCCC4)nn23)c1
OUT: > 112 µM (not active)

IN: GET /values?readout=EC50&system=Luciferin 4-monooxygenase (Photinus pyralis, UniProt P08659)&item= COc1cccc(C(=O)NCc2ccc3c(c2)cc(C)n3C)c1
OUT: > 112 µM (not active)

----------
// each record: one item and its AC50 for Cytochrome P450 2D6 (Homo sapiens)

> print(dat)
                            compound.string  observable  value.observed
1  COc1ccccc1CN1CC2(CCN(S(=O)(=O)c3ccccc3)CC2)C1        AC50    inconclusive
2  Cc1cc(C)nc(Nc2n[nH]c(COc3ccc4ccccc4c3)n2)n1        AC50    inconclusive
3                          O=C(O)CSSCC(=O)O        AC50    inconclusive
4  O=C(Nc1ccc2c(c1)OCCO2)C1CCN(C(=O)c2ccccc2)CC1        AC50    inconclusive

Okay, next one:
IN: GET /values?readout=AC50&system=Cytochrome P450 2D6 (Homo sapiens)&item= COc1ccc(-c2nc(NC(=O)c3ccccc3)sc2-c2ccc([N+](=O)[O-])cc2)cc1;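 further: CYP2D6 member of a cytochrome P450 panel assay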
OUT: inconclusive

Data origin, for the record: ChEMBL document CHEMBL1201862
